Values compiled from PubChem BioAssay.

Kindly supply the reported composite z-score values for the records listed here.
experiment: probe aShh binding to arrayed compounds – biochemical, biotinylated probe, 635/667 nm fluorescence, primary screen (AID 1114); settings: small-molecule microarray, higher = more signal;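 further: probe is biotin-labelled aShh protein from a stem cell growth factor screen; measures binding of labelled protein to compounds printed on the slide; score merges feature fluorescence at 667 nm with signal-to-noise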
Quick one: just the number, no unit, thanks!

Sure, the documented composite z-score for CCCC[C@H]1OB(O)C[C@H]2C1=C(C)Cn1c(=O)n(-c3ccccc3)c(=O)n12 is -0.0035

Sure, the documented composite z-score for COC(=O)[C@@]1(Cc2ccc(OC)cc2)[C@H]2c3cc(C(=O)N(C)C)n(CCSCCO)c3C[C@H]2CN1C(=O)c1ccccc1 is 0.234

Sure, the documented composite z-score for CC(C)N1C(=O)c2ccccc2[C@](C)(C(=O)NCCCN(C)C)[C@@H]1c1ccc(CO)cc1 is -0.214

Sure, the documented composite z-score for COC(=O)[C@@]1(Cc2ccc(F)cc2)[C@H]2c3cc(C(=O)N(C)C)n(CCCNc4ccc(C(F)(F)F)cc4Cl)c3C[C@H]2CN1C(=O)c1ccccc1 is 0.391

* * *

experiment: plasmodial surface anion channel blockers, osmotic lysis – cell-based, P. falciparum Indochina, OD700, 18 h, primary screen (AID 1157); details: P. falciparum Indochina infected erythrocytes, osmotic lysis OD700, 18 h; higher = more signal, called active from +8 up or from −8 down
Classification field: Satisfied = z-score at or over 0.3; Not satisfied = z-score under 0.3.

Reported z-score at or above 0.3? COCCCNC(=O)[C@@]1(Cc2ccccc2I)c2ccccc2C(=O)N(Cc2ccccc2)[C@H]1c1ccc(CO)cc1 Satisfied

Reported z-score at or above 0.3? CN1C(=O)C2C(C1=O)C1C=C(c3ccc(CO)cc3)C2C(C2CC2)N1Cc1cc2c(cc1Br)OCO2 (stereo unspecified) Not satisfied

Reported z-score at or above 0.3? COCCn1c(C(=O)N2CCCC2)cc2c1C[C@H]1CN(C(=O)c3ccccc3)[C@@](Cc3ccc(OC)cc3)(C(=O)OC)[C@@H]21 Not satisfied

Reported z-score at or above 0.3? C[N+](C)(C)CCCC[C@@H]1NC(=O)[C@H]2C[C@@H](C(=O)O)[C@@H](c3cccc(OCCO)c3)N2C1=O Not satisfied

Reported z-score at or above 0.3? NC(=O)NCC#Cc1ccc2c(c1)[C@]1(C(=O)N2)[C@H](c2ccccc2OCCO)N2[C@H](c3ccccc3)[C@H](c3ccccc3)OC(=O)[C@H]2[C@@H]1C(=O)N1CCCCCCC1 Satisfied

Reported z-score at or above 0.3? C=C(C(=O)CC[C@@H](OC(=O)c1cccnc1)c1ccc(OCCO)cc1)C(C)C Satisfied

* * *

assay: basal CRE-LacZ reporter activity in PC12 – cell-based, unstimulated, primary screen (AID 1145); settings: no forskolin, luminescence, 4.5 h, higher = more signal, called active from +8 up or from −8 down
Classification field: y = z-score at or over 0.5; n = z-score under 0.5.

Reported z-score at or above 0.5? COC(=O)[C@@]1(Cc2ccc(OC)cc2)[C@H]2c3cc(C(=O)N4CCCC4)n(CCc4ccccn4)c3C[C@H]2CN1C(=O)c1ccccc1 n

Reported z-score at or above 0.5? Cc1ccc(S[C@]2(C(=O)NCC(F)(F)F)CC(=O)N(C3Cc4ccccc4C3)[C@@H]2c2ccc(CO)cc2I)cc1 n

Reported z-score at or above 0.5? C=CCCN(CC#C[C@H]1Oc2ccccc2S(=O)(=O)N2CCC[C@@H]12)S(=O)(=O)c1ccc(C)cc1 y

Reported z-score at or above 0.5? C=CC[C@@]1(C(=O)NCCN2CCOCC2)N=C(c2ccc(OCCCO)cc2)O[C@@H]1c1ccccc1CN=[N+]=[N-] y

Reported z-score at or above 0.5? CC[C@@H]1C=C(C(=O)O)[C@H](c2ccc(C(C)C)cc2)N1S(=O)(=O)c1ccc(C)cc1 n
